- assayProcedure: chemical genetic growth profiling, strain panel (AID 1159580);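 also: tested at 20 µM; growth read once vehicle control cultures reached saturation at 30 °C; 1 = growth at the plate median or of vehicle wells; lower values mean less growth of the strain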
- experimentalSetup: S. cerevisiae deletion strains, growth OD, locus YBR279W, strain paf1, hits give low values
About 2,000 (36%) of roughly 5,500 compounds were called active. Inconclusive results (about 18%) are left out. The list shows a part of the results.

>  <molecule>
CC(=O)c1ccc[nH]1

>  <normalized growth>
1.01

$$$$
>  <molecule>
CC12CCC(OC(=O)c3ccccc3)CC1CCc1ccccc12 (stereo unspecified)

>  <normalized growth>
1.01

$$$$
>  <molecule>
COC(=O)CC1C(C)(C(=O)c2ccoc2)CC2OCC34C(CC(=O)OC)C5(C)CC36OC3(C)OC1(C(OC(C)=O)C6(OC(C)=O)C5OC(=O)C(C)C)C24O3 (stereo unspecified)

>  <normalized growth>
0.996

$$$$
>  <molecule>
CC1CC(OC(=O)c2ccccc2O)CC(C)(C)C1 (stereo unspecified)

>  <normalized growth>
0.98

$$$$
>  <molecule>
O=c1c(O)cccc2cc(O)c(O)c(O)c12

>  <normalized growth>
0.856

$$$$
>  <molecule>
Cc1cc2nc3c(=O)[nH]c(=O)nc-3n(CC(O)C(O)C(O)CO)c2cc1C (stereo unspecified)

>  <normalized growth>
1

$$$$
>  <molecule>
CC12CCC(O)CC1CCc1ccccc12 (stereo unspecified)

>  <normalized growth>
0.981

$$$$
>  <molecule>
ClC1C(Cl)C(Cl)C(Cl)C(Cl)C1Cl (stereo unspecified)

>  <normalized growth>
0.971

$$$$
>  <molecule>
CC(=O)NC1C(O)OC(COS(=O)(=O)O)C(OC2OC(C(=O)O)C(OC3OC(CO)C(OC4OC(C(=O)O)C(O)C(O)C4OS(=O)(=O)O)C(OS(=O)(=O)O)C3NS(=O)(=O)O)C(O)C2OS(=O)(=O)O)C1O (stereo unspecified)

>  <normalized growth>
0.981

$$$$
>  <molecule>
CCCCCC/C=C\CCCCCCCc1cccc(O)c1C(=O)O

>  <normalized growth>
0.984

$$$$
>  <molecule>
CNC(=O)Oc1ccccc1OC(C)C

>  <normalized growth>
0.989

$$$$
>  <molecule>
CN1CCC[C@H]1c1cccnc1

>  <normalized growth>
1.02

$$$$
>  <molecule>
CON

>  <normalized growth>
0.991

$$$$
>  <molecule>
C[N+]12CCC(CC1)C(OC(=O)C(O)(c1ccccc1)c1ccccc1)C2 (stereo unspecified)

>  <normalized growth>
0.985

$$$$
>  <molecule>
CCCC(=O)Nc1ccc(OCC(O)CNC(C)C)c(C(C)=O)c1 (stereo unspecified)

>  <normalized growth>
1.02

$$$$
>  <molecule>
O=c1c(O)c(-c2ccccc2)oc2cccc(O)c12

>  <normalized growth>
0.867

$$$$
>  <molecule>
CC(C)CCCC(C)N (stereo unspecified)

>  <normalized growth>
1.02

$$$$
>  <molecule>
O=C(O)C1=C(CSc2nnnn2CS(=O)(=O)O)CS[C@@H]2C(NC(=O)[C@H](O)c3ccccc3)C(=O)N12 (stereo partly specified)

>  <normalized growth>
0.99

$$$$
>  <molecule>
CC(C)[C@@H]1CC[C@@H](C)CC1=O

>  <normalized growth>
0.994

$$$$
>  <molecule>
O=C(O)[C@H]1/C(=C/CO)O[C@@H]2CC(=O)N21

>  <normalized growth>
0.976

$$$$
>  <molecule>
CC(C)[C@@H]1CC[C@@H](C)C[C@H]1OC(=O)c1ccccc1

>  <normalized growth>
1.01

$$$$
